# target of assay: His6 tagged human recombinant FABP4 (Homo sapiens)
# Construct: purchased Cayman Chemicals 10009549
# Sequence (P15090 whole entry): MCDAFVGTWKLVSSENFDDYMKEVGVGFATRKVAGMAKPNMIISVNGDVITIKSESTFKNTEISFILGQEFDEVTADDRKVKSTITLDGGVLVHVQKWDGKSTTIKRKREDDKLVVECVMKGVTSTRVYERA
# protocol description: FABP4 TR-FRET assay: displacement of BODIPY FL C12 fatty acid
# condition summary: 1 μM compound, triplicates, inhibition of BODIPY FL C12 binding
experimental readout: inhibition at 1 µM (%)
Report the figure in % without appending any unit label.

Noted for CCCCC1CCCc2c1n(Cc1cccc(C(N)=O)c1)c1c(C(=O)O)cccc21 (stereo not drawn) : its inhibition at 1 µM reads 83

Documented inhibition at 1 µM of CCCCC1CCCc2c1n(Cc1cccc(C#N)c1)c1c(C(=O)O)cccc21 (stereo not drawn) : 58

Per the record, CCCCC1CCCc2c(n(Cc3cccc(C#N)c3)c3c(C(=O)NCCO)cccc23)C1 (stereo not drawn) has inhibition at 1 µM of 6.65

Field inhibition at 1 µM (entry CCCCCCC1CCc2c(n(Cc3cccc(C#N)c3)c3c(C(=O)O)cccc23)C1 (stereo not drawn) ) reads 63.6

The value of inhibition at 1 µM measured for the compound CCCCC1CCCc2c(n(Cc3ccccc3F)c3c(C(=O)O)cccc23)C1 (stereo not drawn) turned out to be 92.1

---
Value of measured inhibition at 1 µM for the entry CCCC1CCc2c1n(Cc1cccc(C(N)=O)c1)c1c(C(=O)O)cccc21 (stereo not drawn) : 89.1

# compound CCCCC1CCc2c(n(Cc3cccc(C(N)=O)c3)c3c(C(=O)O)cccc23)C1 (stereo not drawn) ; its inhibition at 1 µM = 88.5

The reported value for CCCCC1Cc2c(n(Cc3cccc(C#N)c3)c3c(C(=O)O)cccc23)C1 (stereo not drawn) in terms of inhibition at 1 µM is 62.1

###

# target of assay: His6 tagged human recombinant FABP4 (Homo sapiens)
# Construct: purchased Cayman Chemicals 10009549
# protocol description: FABP4 TR-FRET assay: displacement of BODIPY FL C12 fatty acid
# condition summary: 1 μM compound, triplicates, inhibition of BODIPY FL C12 binding
Reported inhibition at 1 µM is given for each of the following compounds.
Output spec: scalar in %, unitless text.

Measured inhibition at 1 µM of CCCCC1CCCCc2c1n(Cc1cccc(C#N)c1)c1c(C(=O)O)cccc21 (stereo not shown) : 71.3

Reported inhibition at 1 µM for CCCCC1CCc2c1n(Cc1cccc(C(N)=O)c1)c1c(C(=O)O)cccc21 (stereo not shown) was 96.8

Sure, the documented inhibition at 1 µM for CCCC1CCc2c(n(Cc3cccc(C(N)=O)c3)c3c(C(=O)O)cccc23)C1 (stereo not shown) is 83.6

inhibition at 1 µM for CCCCC1CCCc2c(n(Cc3cccc(F)c3)c3c(C(=O)O)cccc23)C1 (stereo not shown) is 97

Next:
Reported inhibition at 1 µM of CCCCCCC1CCc2c(n(Cc3ccc(C#N)cc3)c3c(C(=O)O)cccc23)C1 (stereo not shown) : 39.7

Entry under test: CCC1CCc2c(n(Cc3cccc(C(N)=O)c3)c3c(C(=O)O)cccc23)C1 (stereo not shown) . Its inhibition at 1 µM was 85.5

In plain terms, CCCCCCC1CCCc2c(n(Cc3ccc(C(N)=O)cc3)c3c(C(=O)O)cccc23)C1 (stereo not shown) has a documented inhibition at 1 µM of 77.7

Value of measured inhibition at 1 µM for the entry CCCCCCC1CCCc2c(n(Cc3cccc(C#N)c3F)c3c(C(=O)O)cccc23)C1 (stereo not shown) : 87.9

Recorded result, CCCCCCC1CCc2c(n(Cc3ccccc3C#N)c3c(C(=O)O)cccc23)C1 (stereo not shown) , inhibition at 1 µM: 87.3

Entry CCCCCC1CCCc2c1c1cccc(C(=O)O)c1n2Cc1cccc(C#N)c1 (stereo not shown) , inhibition at 1 µM reported as 26.3
